target: iLOV (Arabidopsis thaliana, UniProt P93025, S394T/S409G/C426A/I452T/F470L/M475V); assay: fluorescence titration of apo protein, emission at […] nm; details: PBS; noncooperative 1:1 fit, protein concentration fitted
Sequence (P93025 387-496 S394T/S409G/C426A/I452T/F470L/M475V limits assumed): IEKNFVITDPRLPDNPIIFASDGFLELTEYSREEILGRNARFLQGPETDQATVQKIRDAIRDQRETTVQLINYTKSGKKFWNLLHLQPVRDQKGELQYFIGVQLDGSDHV
pKd: −log10 of the molar value.

smiles_entry | pKd
Cc1cc2nc3c(=O)[nH]c(=O)nc-3n(C[C@H](O)[C@H](O)[C@H](O)COP(=O)(O)O)c2cc1C | 6.64
Cc1cc2nc3c(=O)[nH]c(=O)nc-3n(C[C@H](O)[C@H](O)[C@H](O)CO)c2cc1C | 6.05
Cc1cc2nc3c(=O)[nH]c(=O)nc-3n(C[C@H](O)[C@H](O)[C@H](O)COP(=O)(O)OP(=O)(O)OC[C@H]3O[C@@H](n4cnc5c(N)ncnc54)[C@H](O)[C@@H]3O)c2cc1C | 6.74
